target: Replicative DNA helicase DnaB (Mycobacterium tuberculosis); test: DnaB intein splicing inhibitors, dose response, biochemical, cell-free fluorescence (AID 449749); type: functional
Calls of active or inactive are those of the source.
metric: AC50

A selection of reference data follows.
compound	result
CCN(CC)CCNC(=O)CSc1c2c(nc3cc(Cl)ccc13)CCCC2	241 µM (active)
O=C(CCN1C(=O)/C(=C/c2cccs2)SC1=S)Nc1cccc(O)c1	1.64 µM (active)
O=C(NC1CCCC1)C(c1ccc(F)cc1)N(Cc1ccc(F)cc1)C(=O)CCl (stereo not given)	4.67 µM (active)
CC(C)C[C@H]1C(=O)N2CCC[C@H]2[C@]2(O)O[C@](NC(=O)[C@@H]3C=C4c5cccc6[nH]c(Br)c(c56)CC4N(C)C3)(C(C)C)C(=O)N12 (stereo not given in full)	> 380 µM (inactive)
COc1ccc(C2=NN(c3nc(C)cc(C)n3)C(=O)C2)cc1	4.53 µM (active)
O=C(OCn1ncc(Br)c(Br)c1=O)c1ccc(F)cc1	2.02 µM (active)
CC1=NN(c2cccc(Cl)c2)C(=O)C1	75.7 µM (active)
COc1cc(OC)cc(-c2nnc(Sc3ccc(C=O)cc3[N+](=O)[O-])o2)c1	6.58 µM (active)
CS(=O)(=O)c1ncc(Cl)c(C(=O)Nc2ccc(OC(F)F)cc2)n1	3.68 µM (active)
Cc1ccc(NC(=O)c2cc(NC(=O)/C=C\C(=O)O)ccc2N2CCCCC2)cc1	14.4 µM (active)

Q: # input compound: CCC(CNc1cc(OC)cc2cccnc12)NC1CCCCC1 (stereo not given) ; wanted: its AC50
A: > 380 µM (inactive)

Q: # input compound: O=c1cc(C2CCNCC2)[nH][nH]1 ; wanted: its AC50
A: 3.73 µM (active)

Q: # input compound: COc1cccc(C(c2c(C)nn(-c3ccccc3)c2O)c2c(C)nn(-c3ccccc3)c2O)c1OC ; wanted: its AC50
A: 1.25 µM (active)

Q: # input compound: COC(=O)c1ccccc1Sc1ncnc2onc(C)c12 ; wanted: its AC50
A: 12.4 µM (active)

Q: # input compound: COC(=O)c1ccc(-c2ccc(C(c3c(C)[nH][nH]c3=O)c3c(C)[nH][nH]c3=O)o2)cc1 ; wanted: its AC50
A: 0.595 µM (inconclusive)

Q: # input compound: COc1ccc2ccc3c(c2c1)N=C[C@]1(O3)N(C)c2ccccc2C1(C)C ; wanted: its AC50
A: > 380 µM (inactive)

Q: # input compound: COc1ccc(-n2c(=O)c3ccccc3c3ccccc3c2=O)cc1 ; wanted: its AC50
A: 10.1 µM (active)

Q: # input compound: Cc1n[nH]c2c1C(CCc1ccccc1)C(C#N)=C(N)O2 (stereo not given) ; wanted: its AC50
A: 24.9 µM (active)

Q: # input compound: C[C@@H]1CC=C[C@H]2[C@H]1C(=O)N(Cc1ccccc1)[C@H]2c1ccc(C(F)(F)F)cc1 ; wanted: its AC50
A: 22.3 µM (active)

Q: # input compound: Cc1[nH]n(C)c(=O)c1C(=O)c1c(-c2ccccc2Cl)noc1C ; wanted: its AC50
A: 6.51 µM (active)

====

target: Streptokinase A (Streptococcus pyogenes serotype M1, UniProt P10520); experiment: viability-normalized secreted streptokinase activity reduction – plasminogen activation absorbance, OD405, dose response (AID 1914); type: functional, Streptococcus pyogenes M1 GAS;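 also: secreted streptokinase activity via plasminogen activation per viability signal from cell pellet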
Sequence (P10520 whole entry): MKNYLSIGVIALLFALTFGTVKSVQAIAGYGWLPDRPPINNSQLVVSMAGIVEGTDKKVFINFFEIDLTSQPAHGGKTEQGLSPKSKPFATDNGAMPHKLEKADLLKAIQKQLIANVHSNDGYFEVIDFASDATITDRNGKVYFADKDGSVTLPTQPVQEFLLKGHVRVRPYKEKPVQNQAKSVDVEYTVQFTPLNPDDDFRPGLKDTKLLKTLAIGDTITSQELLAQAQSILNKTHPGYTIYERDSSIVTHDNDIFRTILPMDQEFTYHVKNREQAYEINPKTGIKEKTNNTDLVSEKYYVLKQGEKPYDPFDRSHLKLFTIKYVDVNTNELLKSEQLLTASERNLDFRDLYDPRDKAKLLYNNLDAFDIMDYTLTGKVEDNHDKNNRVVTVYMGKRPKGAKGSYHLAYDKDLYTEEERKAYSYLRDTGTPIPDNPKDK
Quick reference for EC50 among some compounds

> print(dat)
                                   compound                 result
1  CCOC(=O)N1CCN(C(=O)c2cc3n(n2)C(C(F)(F)F)CC(c2ccc4c(c2)OCO4)N3)CC1 (stereo not drawn)  > 150 µM (not active)
2  COc1ccccc1CCNC(=O)C(=O)c1cn(CC(=O)N2CCCC2)c2ccccc12  > 150 µM (not active)

Okay, next one:
Q: Value wanted: EC50 (Streptokinase A (Streptococcus pyogenes serotype M1, UniProt P10520)) of entry COCC1CCCCN1C(=O)c1ccc2oc(CCCc3ccccc3)nc2c1 (stereo not drawn)
A: > 150 µM (not active)

====

test: alpha-synuclein stem-loop luciferase translation blockers – H4 neuroglioma cells, luminescence, confirmation (AID 1988); format: functional, cell-based
Activity calls are given as the source filed them.
metric: EC50

compound	metric	result
O=C(OCn1ncc(Br)c(Br)c1=O)c1ccc(F)cc1	EC50	> 120 µM (not active)
COc1ccc(-n2nnnc2-c2cccc(OC)c2)cc1	EC50	0.824 µM (inconclusive)
CC(=O)OC(C)(C)/C=C/C(=O)C(C)(O)C1[C@H](O)C[C@@]2(C)C3CC=C4C(CC[C@@H](O)C4(C)C)[C@]3(CO)C(=O)C[C@]12C (stereo not given in full)	EC50	< 0.1 µM (active)

Q: # input compound: COC(=O)c1cc(NC(=O)c2c(Cl)nc3sccn23)cc(C(=O)OC)c1 ; wanted: its EC50
A: 9.13 µM (active)

Q: # input compound: Brc1ccc2c(c1)OCCOCCOc1cc(Br)ccc1OCCOCCOCCO2 ; wanted: its EC50
A: > 120 µM (not active)

====

assay: NIH3T3 cell viability loss – ATP luminescence, mouse fibroblasts, counter-screen, dose response (AID 2010); format: functional, cell-based;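 also: cells exposed to compound for about 90 hours before reading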
Activity calls are given as the source filed them.
metric: EC50

Q: # input molecule: O=C(NC(N=C(S)Nc1c(Cl)cccc1Cl)C(Cl)(Cl)Cl)c1cccc([N+](=O)[O-])c1 (configuration not stated) ; wanted: its EC50
A: > 60 µM (not active)

Q: # input molecule: COc1cc(-c2nc3ccccn3c2NCc2ccccc2)ccc1SC1CCCCC1 ; wanted: its EC50
A: > 60 µM (not active)

Q: # input molecule: CS(=O)(=O)c1ncc(Cl)c(C(=O)Nc2ccc(OC(F)F)cc2)n1 ; wanted: its EC50
A: 4.44 µM (active)

====

Quick reference for AC50 among some compounds
target: Caspase-6 (Homo sapiens); assay: inhibition of CASP6 peptide cleavage – biochemical, VEID-R110 fluorescence, cherry-pick, dose response (AID 720632)
The source made the active and inactive calls.

A selection of reference data follows.
> print(dat)
                                   compound  metric            result
1  O=C(Nc1cccc(Cl)c1)c1cccc(N2C(=O)C3CC=CCC3C2=O)c1 (stereo not given)    AC50  9.42 µM (active)
2      Oc1ccc(/C=N/Nc2ccnc3cc(Cl)ccc23)cc1O    AC50  1.61 µM (active)
3  CCCCN(C(=O)c1cccc(-n2cccc2)c1)c1c(N)n(CCC)c(=O)[nH]c1=O    AC50  1.93 µM (active)

Q: # input compound: O=C(O)c1ccc(N2C(=O)c3cccc4c(C(=O)O)ccc(c34)C2=O)cc1 ; wanted: its AC50
A: 7.17 µM (active)

Q: # input compound: CC1CCN(C(=O)COC(=O)c2ccc([N+](=O)[O-])o2)CC1 ; wanted: its AC50
A: 18.3 µM (active)

====

target: Caspase-3 (Homo sapiens, UniProt P42574); type: functional;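 also: Dose-response selectivity test against caspase-3 for candidate inhibitors of sentrin-specific proteases (SENPs)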
Calls of active or inactive are those of the source.
Give one outcome, nothing more. List: active, inactive

Consider the worked cases shown below.
> print(dat)
                                entrysmiles  categorylabel
1     O=[N+]([O-])c1ccc(N/N=C/c2ccccc2O)cc1         active
2        COc1ccc(/C=C2\CCc3ccccc3C2=O)cc1OC         active
3              O=Nc1ccc(NOC(=O)c2ccccc2)cc1         active
4  COc1ccc(S(=O)(=O)N2CCOCC2)cc1NC(=O)COC(=O)c1ccc([N+](=O)[O-])s1         active
5      COc1cccc(/N=C/c2c(O)oc3ccccc3c2=O)c1       inactive

Q: Given O=C(Nc1nc2c(s1)CCCC2)c1ccc(Br)s1 , state the outcome it received in this test.
A: active

====

Quick reference for EC50 among some molecules
target: Peroxisome proliferator-activated receptor gamma/Nuclear receptor coactivator 3 (Homo sapiens); assay type: functional;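 also: agonist potency for raising coactivator recruitment to the receptor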
Sequence (P37231 whole entry): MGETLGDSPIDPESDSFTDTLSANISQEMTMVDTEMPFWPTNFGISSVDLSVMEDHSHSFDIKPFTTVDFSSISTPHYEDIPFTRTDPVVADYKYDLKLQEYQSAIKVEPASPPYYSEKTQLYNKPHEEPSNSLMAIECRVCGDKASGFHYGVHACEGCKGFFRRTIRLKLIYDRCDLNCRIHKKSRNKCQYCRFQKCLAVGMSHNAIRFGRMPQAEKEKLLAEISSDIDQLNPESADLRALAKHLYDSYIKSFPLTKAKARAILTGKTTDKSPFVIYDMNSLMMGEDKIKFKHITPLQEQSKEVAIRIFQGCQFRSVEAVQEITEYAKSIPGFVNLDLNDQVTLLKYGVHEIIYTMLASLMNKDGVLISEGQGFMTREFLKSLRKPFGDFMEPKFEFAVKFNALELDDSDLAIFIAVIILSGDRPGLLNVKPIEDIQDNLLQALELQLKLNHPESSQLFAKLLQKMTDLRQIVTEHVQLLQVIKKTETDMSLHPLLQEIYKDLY
Sequence (Q9Y6Q9 whole entry, further chain): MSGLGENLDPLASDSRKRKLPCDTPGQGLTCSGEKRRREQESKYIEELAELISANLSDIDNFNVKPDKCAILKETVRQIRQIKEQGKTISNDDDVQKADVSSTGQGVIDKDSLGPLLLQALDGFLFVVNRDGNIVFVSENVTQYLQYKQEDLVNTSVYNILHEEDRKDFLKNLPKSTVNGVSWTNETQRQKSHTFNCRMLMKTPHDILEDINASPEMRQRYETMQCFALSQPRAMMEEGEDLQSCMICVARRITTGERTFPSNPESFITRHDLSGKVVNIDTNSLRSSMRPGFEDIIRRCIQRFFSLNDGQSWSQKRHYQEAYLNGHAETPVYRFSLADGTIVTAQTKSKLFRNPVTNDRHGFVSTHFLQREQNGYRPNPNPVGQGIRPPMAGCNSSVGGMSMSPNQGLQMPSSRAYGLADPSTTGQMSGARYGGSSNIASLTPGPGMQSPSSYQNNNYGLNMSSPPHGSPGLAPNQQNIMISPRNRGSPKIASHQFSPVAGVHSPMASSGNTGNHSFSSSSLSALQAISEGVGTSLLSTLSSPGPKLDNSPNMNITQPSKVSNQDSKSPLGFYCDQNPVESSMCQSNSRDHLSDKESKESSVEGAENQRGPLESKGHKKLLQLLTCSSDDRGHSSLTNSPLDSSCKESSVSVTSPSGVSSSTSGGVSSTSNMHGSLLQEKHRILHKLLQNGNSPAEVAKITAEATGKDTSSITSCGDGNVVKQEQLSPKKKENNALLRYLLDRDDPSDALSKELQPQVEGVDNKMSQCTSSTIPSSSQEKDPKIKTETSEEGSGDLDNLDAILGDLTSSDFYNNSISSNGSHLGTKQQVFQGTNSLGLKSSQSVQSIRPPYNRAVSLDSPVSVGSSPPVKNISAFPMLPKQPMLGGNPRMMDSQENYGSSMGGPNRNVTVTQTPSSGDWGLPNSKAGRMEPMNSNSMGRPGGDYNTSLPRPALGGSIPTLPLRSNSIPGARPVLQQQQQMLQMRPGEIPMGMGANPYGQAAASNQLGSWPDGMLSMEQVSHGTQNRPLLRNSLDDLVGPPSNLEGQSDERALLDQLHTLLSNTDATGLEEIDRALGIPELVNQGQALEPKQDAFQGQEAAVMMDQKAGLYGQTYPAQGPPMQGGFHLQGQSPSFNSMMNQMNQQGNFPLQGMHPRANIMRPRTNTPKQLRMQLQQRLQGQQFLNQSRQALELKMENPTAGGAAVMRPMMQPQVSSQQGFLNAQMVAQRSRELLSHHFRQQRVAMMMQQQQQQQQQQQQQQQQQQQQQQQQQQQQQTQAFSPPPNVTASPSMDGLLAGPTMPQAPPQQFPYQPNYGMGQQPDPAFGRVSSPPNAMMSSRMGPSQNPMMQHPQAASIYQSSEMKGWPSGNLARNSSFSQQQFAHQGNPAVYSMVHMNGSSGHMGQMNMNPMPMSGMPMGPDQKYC

A selection of reference data follows.
> print(dat)
                                   molecule                  result
1       Clc1cccc2sc(N3CCN(c4ccccc4)CC3)nc12  > 79.4 µM (not active)
2  O=C(Cc1sc(-c2ccccc2Cl)nc1-c1ccccc1)Nc1ccccc1    11.3 µM (not active)
3  Cc1sc2nc3c(SC(C)C(=O)O)cc(C(=O)c4ccccc4O)cn3c(=O)c2c1C (centres undefined)    25.9 µM (not active)

Okay, next one:
Q: # input molecule: COc1ccc(OC)c2c1s/c(=N\C(=O)C(C)(C)C)n2C ; wanted: its EC50
A: > 79.4 µM (not active)

====

Quick reference for IC50 among some compounds
Target: Type-1 angiotensin II receptor (Homo sapiens, UniProt P30556)
Sequence (P30556 whole entry): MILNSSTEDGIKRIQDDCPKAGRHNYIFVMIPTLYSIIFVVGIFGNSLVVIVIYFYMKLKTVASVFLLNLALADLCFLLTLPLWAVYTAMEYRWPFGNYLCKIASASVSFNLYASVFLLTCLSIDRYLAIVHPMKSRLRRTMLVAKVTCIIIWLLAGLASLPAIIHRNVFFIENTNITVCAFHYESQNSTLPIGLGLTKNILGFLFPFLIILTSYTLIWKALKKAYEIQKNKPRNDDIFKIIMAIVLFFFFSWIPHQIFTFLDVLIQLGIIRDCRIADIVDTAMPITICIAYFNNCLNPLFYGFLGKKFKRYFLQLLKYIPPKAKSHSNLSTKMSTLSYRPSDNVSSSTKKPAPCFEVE
Assay: antagonism of angiotensin II type 1 receptor – cell-based, uHTS hits, selectivity assay for APJ receptor antagonist project, dose response (AID 463214);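 also: antagonist potency against angiotensin II stimulated AT1 response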
Format: functional
Active and inactive are the calls of the source.

A selection of reference data follows.
> print(dat)
                                   compound  metric                result
1  Cc1cccc(C(=O)Nc2ccc(C(=O)/C=C/c3ccncc3)cc2)c1    IC50      9.71 µM (active)
2  FC(F)(F)c1cccc(Sc2nc(-c3ccccc3)nnc2C(F)(F)F)c1    IC50  21.4 µM (not active)
3  CS(=O)(=O)c1ncc(Cl)c(C(=O)Nc2ccc(OC(F)F)cc2)n1    IC50      7.79 µM (active)
4               Cc1ccc(C(=O)CNc2ccccc2C)cc1    IC50       8.2 µM (active)
5  Cc1ccc(C)c(NC(=S)N/N=C2/CCCCc3ccccc32)c1    IC50  > 40 µM (not active)

Q: Value wanted: IC50 (Type-1 angiotensin II receptor (Homo sapiens, UniProt P30556)) of entry CC(=O)Nc1ccc(NC(=O)CCC(=O)OCC(=O)c2ccc(C)c([N+](=O)[O-])c2)cc1
A: > 40 µM (not active)

Q: Value wanted: IC50 (Type-1 angiotensin II receptor (Homo sapiens, UniProt P30556)) of entry SC1=NCCc2ccccc2C1c1ccccc1Cl (configuration not stated)
A: 13.8 µM (active)
